Tested on: Malme-3M
assayMethodText: NCI tumour cell line growth inhibition, 48 h
Activity calls are given as the source filed them. Rule as the data show it: active = GI50 up to about 1.1 µM and inactive = higher.
Select the correct class. Options are YES for active, NO for inactive and nothing else.

These solved cases illustrate the format of a correct answer.
Exercise: Any idea what this test logged for COc1cc(-c2c3c(cc4c2OCO4)[C@@H](Nc2ccc4c(c2)Cc2cc(N[C@@H]5c6cc7c(cc6C(c6cc(OC)c(O)c(OC)c6)[C@H]6C(=O)OC[C@H]56)OCO7)ccc2-4)[C@H]2COC(=O)[C@@H]2C3)cc(OC)c1O (some centres not stated) ?
Solution: NO

Exercise: Any idea what this test logged for CS/C(=N\c1ccc([N+](=O)[O-])cc1C#N)NC(=O)c1ccccc1 ?
Solution: NO

Exercise: Any idea what this test logged for CC(=O)O/C(C)=C\C(=O)O/N=C(\N)c1ccc(C)cc1 ?
Solution: NO

Exercise: Any idea what this test logged for COC(=O)Cc1ccc2c(c1)Sc1ccc(CC(=O)OC)cc1N2C ?
Solution: NO

Exercise: Any idea what this test logged for CCOC(=O)/C(=C\c1ccccc1)C(=O)CCN1CCOCC1 ?
Solution: NO

Exercise: Any idea what this test logged for CC[C@H](C)[C@H]1NC(=O)[C@@H](NC(=O)[C@@H](CC(C)C)N(C)C(=O)C2CCCN2C(=O)[C@H](C)O)[C@@H](C)OC(=O)[C@H](Cc2ccccc2)N(C)C(=O)[C@@H]2CCCN2C(=O)[C@H](CC(C)C)NC(=O)[C@@H](C)C(=O)[C@H](C(C)C)OC(=O)C[C@@H]1O (some centres not stated) ?
Solution: YES

Then this compound:
Exercise: Any idea what this test logged for CCOC(=O)C1=C(C(=O)c2ccc(C)cc2)C(c2cccc([N+](=O)[O-])c2)C(C(=O)c2ccc(C)cc2)=C(C(=O)OCC)N1 ?
Solution: NO

---

Tested on: SW-620
assayMethodText: NCI tumour cell line growth inhibition, 48 h
Active and inactive are the calls of the source. Cut-off read from the data, not from the text of the source: active = GI50 up to about 1.1 µM and inactive = higher.
I'd appreciate it if you could supply GI50 values for the items below.

Recorded results for 3 compounds are shown here.
GI50 reading for Cc1ccc(S(=O)(=O)N2CCSCCSCCSCCN(S(=O)(=O)c3ccc(C)cc3)CC2)cc1 : > 100 µM (inactive)

GI50 reading for O=C(Nc1sccc1S(=O)(=O)c1ccc(Cl)cc1)c1ccccc1 : > 100 µM (inactive)

GI50 reading for CCOC(=O)C1=C(C)N(Cc2ccccc2)C(C)=C(C(=O)OCC)C1c1ccccc1O : 39.9 µM (inactive)

For each of the items listed, what is its GI50?
1. CC(C)(C)C1CCC2c3c([nH]c4ccccc34)C3C(=O)N(c4ccccc4[N+](=O)[O-])C(=O)C3C2C1 (configuration not stated)
2. C#CC[C@]12CC(=O)CC[C@H]1CC1(C2)OCCO1
3. COc1ccc(-n2c(SC(CN3CCOCC3)CN3CCCC3=O)nc3ccccc3c2=O)cc1 (configuration not stated)
4. Cc1ccc(S(=O)(=O)OC2CSSCC2OS(=O)(=O)c2ccc(C)cc2)cc1 (configuration not stated)

Solution:
11.5 µM (inactive)
> 100 µM (inactive)
> 100 µM (inactive)
14.4 µM (inactive)

---

Test system: MDA-MB-435
assayMethodText: NCI tumour cell line growth inhibition, 48 h
The source made the active and inactive calls. No stated cut-off is given here; in the data, active = GI50 up to about 1.1 µM and inactive = higher.
Select the correct class. Options are active, inactive and nothing else.

Exercise: Any idea what this test logged for O=C(CCc1cc(O)cc(O)c1)NCCc1cc(OCc2ccccc2)cc(OCc2ccccc2)c1 ?
Solution: inactive

Then this compound:
Exercise: Any idea what this test logged for CN1CN(c2ccccc2)C2(CCN(CCc3csc4ccccc34)CC2)C1=O ?
Solution: inactive
